Assay: Kinetic solubility analysis (CLND: total chemiluminescent nitrogen determination)
Conditions: 0.1N HCl, 1.0% DMSO, 24-hour incubation at ambient temperature, maximum theoretical concentration 100 μM
QUANTITY KIND: pH 2 solubility (μM)

[I] CC(C)(C#Cc1ccc(-c2ccc(Cl)c3c(N(C(=O)N4CCC[C@H]4COP(=O)(O)O)S(C)(=O)=O)nn(CC(F)(F)F)c23)c([C@H](Cc2cc(F)cc(F)c2)NC(=O)Cn2nc(C(F)(F)F)c3c2C(F)(F)[C@@H]2C[C@H]32)n1)S(C)(=O)=O [Compound 29]
[II] CC(C)(C#Cc1ccc(-c2ccc(Cl)c3c(N(C(=O)C4CNC4)S(C)(=O)=O)nn(CC(F)(F)F)c23)c([C@H](Cc2cc(F)cc(F)c2)NC(=O)Cn2nc(C(F)(F)F)c3c2C(F)(F)[C@@H]2C[C@H]32)n1)S(C)(=O)=O [Compound 5]
[III] CC(C)(C#Cc1ccc(-c2ccc(Cl)c3c(N(C(=O)c4ccccc4C(=O)OCOP(=O)(O)O)S(C)(=O)=O)nn(CC(F)(F)F)c23)c([C@H](Cc2cc(F)cc(F)c2)NC(=O)Cn2nc(C(F)(F)F)c3c2C(F)(F)[C@@H]2C[C@H]32)n1)S(C)(=O)=O [Compound 19]
[IV] CC(C)(C#Cc1ccc(-c2ccc(Cl)c3c(N(C(=O)C4CN(C(=N)N)C4)S(C)(=O)=O)nn(CC(F)(F)F)c23)c([C@H](Cc2cc(F)cc(F)c2)NC(=O)Cn2nc(C(F)(F)F)c3c2C(F)(F)[C@@H]2C[C@H]32)n1)S(C)(=O)=O [Compound 6]
Please list these in order of increasing pH 2 solubility. Thank you! Could you list the labels in the order requested?
I, III, IV, II

[1] CN1CCN(C(=O)N(c2nn(CC(F)(F)F)c3c(-c4ccc(C#CC(C)(C)S(C)(=O)=O)nc4[C@H](Cc4cc(F)cc(F)c4)NC(=O)Cn4nc(C(F)(F)F)c5c4C(F)(F)[C@@H]4C[C@H]54)ccc(Cl)c23)S(C)(=O)=O)CC1 [Compound 1]
[2] CC(C)(C#Cc1ccc(-c2ccc(Cl)c3c(N(C(=O)N4CCC(C(=O)O)CC4)S(C)(=O)=O)nn(CC(F)(F)F)c23)c([C@H](Cc2cc(F)cc(F)c2)NC(=O)Cn2nc(C(F)(F)F)c3c2C(F)(F)[C@@H]2C[C@H]32)n1)S(C)(=O)=O [Compound 25]
Consider 1 and 2 . Which of these has its pH 2 solubility at a higher number? Indicate your choice by writing its label.
1
(1: 39 μM, 2: 1 μM)
